Measurement description: Metabolic stability in hepatocytes, beagle dogs
Type: in vitro ADME
Conditions used: dog, cryopreserved hepatocytes
Readout type: half-life at 1 μM (h)
Provide only the numeric value, understood in h.

Q: Can you share its half-life at 1 μM? I mean this molecule: C=C(F)C(=O)N1CCN(c2nc(OC[C@@]34CCCN3C[C@H](F)C4)nc3c2CO[C@H](c2c(F)c(N)cc(C)c2C(F)(F)F)C3)C[C@@H]1CC#N
Result: 3.04

###

Measurement description: Pharmacokinetics by oral administration and intravenous injection in CD mice
Assay type: in vivo
Conditions used: male, mouse, plasma, intravenous injection, 2.0 mg/kg, read-out: Clearance rate, CL
Readout type: clearance (mL/min/kg)
Provide only the numeric value, understood in mL/min/kg.

Q: Can you share its clearance? I mean this compound: C=C(F)C(=O)N1CCN(c2nc(OC[C@@]34CCCN3C[C@H](F)C4)nc3c2CO[C@H](c2c(F)c(N)cc(C)c2C(F)(F)F)C3)C[C@@H]1CC#N
Result: 40.6
